The reported numbers originate from the supplement of paper PMC7411054.

Tested on: WPMY1-CANX-COX4
protocol notes: phenotypically active (imaging signature differs from DMSO and reproducible) at any of 0.3-9 uM (binary (1 = active, 0 = inactive)); higher = active
condition set: treatment time: 24 h
The categories you may choose from are active, inactive

See these solved cases before continuing.
Cc1sc2c(c1C)C(c1ccc(Cl)cc1)=N[C@@H](CC(=O)OC(C)(C)C)c1nnc(C)n1-2	active
Cc1ccc(-c2nc3ccc(C)cn3c2CC(=O)N(C)C)cc1	inactive
CCC(=O)O[C@](Cc1ccccc1)(c1ccccc1)[C@H](C)CN(C)C	inactive

Now, please, on to the next molecule.
Problem: Short answer needed: outcome of this test for `C=C1[C@@H](C)[C@H]2[C@H](Cc3ccccc3)NC(=O)[C@]23OC(=O)C=C[C@H](O)CCC[C@@H](C)CC=C[C@H]3[C@@H]1O` ?
Result: active

----------
Tested on: WPMY1-ACTB-RAB5A
protocol notes: lowest phenotypically active concentration; higher = less potent
condition set: treatment time: 24 h
Structures can show the parent of a compound that is named as a salt.
test readout: lowest phenotypically active concentration (µM)
The reply should contain only the number, in µM.

O=C(NCCN1CCC2(CC1)C(=O)NCN2c1cccc(F)c1)c1ccc(F)c(F)c1 [ML 298 hydrochloride]	9
COc1ccc2c(c1)/C(=C/c1c[nH]cn1)C(=O)N2	3

Let us move to another entry and its lowest phenotypically active concentration.
Problem: Find the measured lowest phenotypically active concentration of C[C@@H]1C[C@@H]([C@H](O)CC2CC(=O)NC(=O)C2)C(=O)[C@@H](C)C1 [Cycloheximide] and report it.
Result: 1

----------
Listing of entries alongside the reported phenotypically active.
Test system: HepG2-TP53BP1-CLTA
protocol notes: phenotypically active (imaging signature differs from DMSO and reproducible) at any of 0.3-9 uM (binary (1 = active, 0 = inactive)); higher = active
condition set: treatment time: 24 h
Respond with the number and no other words.

Sample records with phenotypically active:
COc1c2c(cc3c1OCO3)CC[N+](C)=C2 [Cotarnine chloride]	0
C=CCC1(C(C)C#CCC)C(=O)NC(=O)N(C)C1=O (stereo not given)	0
CCCC(C)C1(CC)C(=O)N=C(S)NC1=O (stereo not given)	0
C[C@@]1(CO)[C@H](O)CC[C@@]2(C)[C@H]1CC[C@H]1C[C@@H]3C[C@@]12CC[C@]3(O)CO	1

Let us move to another entry and its phenotypically active.
Problem: Find the measured phenotypically active of CN(C)NC(=O)CCC(=O)O [Daminozide] and report it.
Result: 0

----------
Tested on: WPMY1-TP53BP1-CLTA
protocol notes: phenotypically active (imaging signature differs from DMSO and reproducible) at any of 0.3-9 uM (binary (1 = active, 0 = inactive)); higher = active
condition set: treatment time: 24 h
Structures can show the parent of a compound that is named as a salt.
The categories you may choose from are active, inactive

COC[C@H]1OC(=O)c2coc3c2[C@@]1(C)C1=C(C3=O)[C@@H]2CCC(=O)[C@@]2(C)C[C@H]1OC(C)=O	inactive
O=C1NC(=O)c2c1c1c3ccccc3n3c1c1c2c2ccccc2n1C1CCC3O1	active
COc1ccc2c(c1OC)C(=O)O[C@@H]2[C@H]1c2cc3c(cc2CCN1C)OCO3 [Hydrastine]	inactive
Cc1c(C(=O)c2cccc3ccccc23)c2cccc3c2n1[C@H](CN1CCOCC1)CO3 [WIN 55,212-2 mesylate]	active
C[C@H]1C(=O)O[C@@H]2CCN3CC=C(COC(=O)[C@](C)(O)[C@]1(C)O)[C@H]23	inactive
C=CCC1(C(C)C#CCC)C(=O)NC(=O)N(C)C1=O (centres undefined)	inactive
CCCC(C)C1(CC)C(=O)N=C(S)NC1=O (centres undefined)	inactive
CN1C(CC(O)c2ccccc2)CCCC1CC(O)c1ccccc1 (centres undefined) [Lobelanidine hydrochloride]	inactive

Now, please, on to the next compound.
Problem: Short answer needed: outcome of this test for `N#CC(C#N)=NNc1cccc(Cl)c1` ?
Result: active

----------
Test system: WPMY1-TUBA1B-RELA
protocol notes: phenotypically active (imaging signature differs from DMSO and reproducible) at any of 0.3-9 uM (binary (1 = active, 0 = inactive)); higher = active
condition set: treatment time: 24 h
Where a name gives a salt, the structure may show the parent alone.
The categories you may choose from are active, inactive

See these solved cases before continuing.
CC[C@H]1C2C[C@H]3[C@@H]4N(C)c5ccccc5[C@]45C[C@H](C2[C@H]5O)N3[C@@H]1O (stereo partly drawn)	inactive
O=C1C[C@@H]2OCC=C3C[N+]4([O-])CC[C@]56c7ccccc7N1[C@H]5[C@H]2[C@H]3C[C@@H]64 (stereo partly drawn)	inactive
COc1ccc(CCN2CCC(Nc3nc4ccccc4n3Cc3ccc(F)cc3)CC2)cc1	active
C[C@]12CC[C@H]3[C@@H](CCC4=CC(=O)CC[C@@]43C)[C@@H]1CC[C@@H]2O	inactive

Problem: Short answer needed: outcome of this test for `C[C@@]1(CO)[C@H](O)CC[C@@]2(C)[C@H]1CC[C@H]1C[C@@H]3C[C@@]12CC[C@]3(O)CO` ?
Result: active

Problem: Short answer needed: outcome of this test for `CC(C)c1cccc(C(C)C)c1O` ?
Result: inactive

Problem: Short answer needed: outcome of this test for Cc1c(C(=O)c2cccc3ccccc23)c2cccc3c2n1[C@H](CN1CCOCC1)CO3 [WIN 55,212-2 mesylate] ?
Result: inactive

Problem: Short answer needed: outcome of this test for `C[C@@H](CO)NC(=O)[C@@H]1C=C2c3cccc4[nH]cc(c34)C[C@H]2N(C)C1` ?
Result: inactive

Problem: Short answer needed: outcome of this test for `Oc1ccc2c3c1O[C@H]1[C@@H](O)CC[C@@]4(O)[C@@H](C2)N(CC2CCC2)CC[C@]314` ?
Result: inactive

----------
Listing of entries alongside the reported lowest phenotypically active concentration.
Test system: WPMY1-GM130-SQSTM1
protocol notes: lowest phenotypically active concentration; higher = less potent
condition set: treatment time: 24 h
Counter-ions that a name gives are not always drawn.
The reply should contain only the number, in µM.

Sample records with lowest phenotypically active concentration:
CC(C)(O)[C@H]1O[C@H]2CC[C@@]3(C)[C@@](O)(CC[C@H]4Cc5c([nH]c6ccccc56)[C@@]43C)C2=CC1=O	9
COc1cc2c(cc1O)C[C@H]1c3c(cc(O)c(OC)c3-2)CCN1C	1
N#CC(C#N)=NNc1ccc(OC(F)(F)F)cc1	9
N[C@@H]1C[C@H]1c1cc(F)cc(F)c1OCc1ccccc1	9
O=C(NCCN1CCC2(CC1)C(=O)NCN2c1cccc(F)c1)c1ccc(F)c(F)c1 [ML 298 hydrochloride]	9

Let us move to another entry and its lowest phenotypically active concentration.
Problem: Find the measured lowest phenotypically active concentration of Cc1c(C(=O)c2cccc3ccccc23)c2cccc3c2n1[C@H](CN1CCOCC1)CO3 [WIN 55,212-2 mesylate] and report it.
Result: 9

----------
Test system: HepG2-TP53BP1-CLTA
protocol notes: phenotypically active (imaging signature differs from DMSO and reproducible) at any of 0.3-9 uM (binary (1 = active, 0 = inactive)); higher = active
condition set: treatment time: 24 h
test readout: phenotypically active
Respond with the number and no other words.

Sample records with phenotypically active:
COc1ccc(C[C@H]2NC[C@H](O)[C@H]2OC(C)=O)cc1 [Anisomycin]	1
CCCCCC[C@H]1C(=O)O[C@H](C)[C@H](NC(=O)c2cccc(NC=O)c2O)C(=O)O[C@@H](C)[C@@H]1OC(=O)CC(C)C [antimycin a]	1
N#CC(CCN1CCC(C(=O)O)(c2ccccc2)CC1)(c1ccccc1)c1ccccc1 [difenoxin]	0
CC(C)(O)[C@H]1O[C@H]2CC[C@@]3(C)[C@@](O)(CC[C@H]4Cc5c([nH]c6ccccc56)[C@@]43C)C2=CC1=O [paxilline]	1
CC[C@@H](C(=O)[C@@H](C)[C@@H](O)[C@H](C)[C@@H]1O[C@@H]([C@@H](CC)C(=O)O)CC[C@@H]1C)[C@H]1O[C@]2(C=C[C@@H](O)[C@]3(CC[C@@](C)([C@H]4CC[C@](O)(CC)[C@H](C)O4)O3)O2)[C@H](C)C[C@@H]1C [Salinomycin Sodium]	1
C=C1C/C(=C\C)C(=O)O[C@@H]2CCN3CC=C(COC(=O)[C@]1(C)O)[C@H]23 [Seneciphylline]	1
C=C1[C@@H](O)C2C=CC[C@H](C)C(=O)[C@](C)(O)C=C[C@@H](OC(C)=O)[C@]23C(=O)N[C@H](Cc2ccccc2)[C@@H]3[C@@H]1C (stereo partly specified) [Cytochalasin D]	1
CC[N+](CC)(CCCNC1=CC(=O)C(NCCC[N+](CC)(CC)Cc2ccccc2)=CC1=O)Cc1ccccc1 [Benzoquinonium dibromide]	0

Problem: Find the measured phenotypically active of `CCCCCOc1ccc(C(=O)c2cccc3ccccc23)c2ccccc12` and report it.
Result: 0

Problem: Find the measured phenotypically active of C[C@H]1CC[C@@H]2N(C1)C[C@H]1[C@@H]3C[C@H]4[C@@H](CC(=O)[C@H]5C[C@@H](O)CC[C@@]54C)[C@@H]3CC[C@H]1[C@]2(C)O [Imperialine] and report it.
Result: 0

Problem: Find the measured phenotypically active of C[C@H](CCC(=O)O)C[C@H](C)C[C@H](C)C(=O)/C=C(\O)[C@H](C)C[C@H](C)C/C=C/[C@@H](C)[C@@H](O)[C@@H](C)[C@@H](O)C[C@@H]1CC[C@@](C)([C@H]2CC[C@@](C)([C@@H](C)O)O2)O1 [Ionomycin free acid] and report it.
Result: 0

Problem: Find the measured phenotypically active of CC1=C(O)C(=O)[C@@H]2O[C@@H]2C1=O [(-)-Terreic acid] and report it.
Result: 0
